Would you kindly list fold induction at 50 µg/mL for each of these compounds?
system: Astroglial cells derived from the mouse forebrain; experiment: Synthesis-stimulating activity on NGF (NGF level in culture medium by enzyme immunoassay); assay type: cell-based; conditions: Mus musculus, 24 h, 50 µg/ml; ratio to DMSO control = 1.0; 24 hours; read-out: Synthesis-Stimulating Activity on NGF
I only need the number, thanks.

Prompt: For the record CCOc1ccc(-c2cc(-c3ccccn3)nc(-c3ccccn3)c2)cc1 , what value of fold induction at 50 µg/mL is listed for Astroglial cells derived from the mouse forebrain?
Response: 2.9

Prompt: And CC(C)c1ccc(-c2cc(-c3ccccn3)nc(-c3ccccn3)c2)cc1 ?
Response: 2.4

Prompt: Same again, this time with CCc1ccc(-c2cc(-c3ccccn3)nc(-c3ccccn3)c2)cc1
Response: 1.2

Prompt: Entry to check: O=C(O)c1ccc(-c2cc(-c3ccccn3)nc(-c3ccccn3)c2)cc1
Response: 3.6

Prompt: Next: Cc1cccc(-c2cc(-c3ccccn3)nc(-c3ccccn3)c2)c1
Response: 1.2

Prompt: Input Clc1ccc(-c2cc(-c3ccccn3)nc(-c3ccccn3)c2)cc1
Response: 2.2

Prompt: Next record, please: c1cc[n+](Cc2ccc(-c3cc(-c4ccccn4)nc(-c4ccccn4)c3)cc2)cc1
Response: 2.9

Prompt: // same read-out, input: c1ccc(-c2cc(-c3ccncc3)cc(-c3ccccn3)n2)nc1
Response: 1.2

###

test system: Astroglial cells derived from the mouse forebrain; experiment: Synthesis-stimulating activity on NGF (NGF level in culture medium by enzyme immunoassay); assay type: cell-based; conditions: Mus musculus, 24 h, 100 µg/ml; ratio to DMSO control = 1.0
Provide the reported fold induction at 100 µg/mL of each item.
Write no unit; give the number alone.

Prompt: Requested field: fold induction at 100 µg/mL. Item: OCCOc1ccc(-c2cc(-c3ccccn3)nc(-c3ccccn3)c2)cc1
Response: 4.2

Prompt: Quick one: Oc1ccccc1-c1cc(-c2ccccn2)nc(-c2ccccn2)c1
Response: 3

Prompt: Next: CCCCCCCCCc1cc[n+](Cc2ccc(-c3cc(-c4ccccn4)nc(-c4ccccn4)c3)cc2)cc1
Response: 3

Prompt: Field entry: CCCCCCCCC(CCCCCCCC)c1cc[n+](Cc2ccc(-c3cc(-c4ccccn4)nc(-c4ccccn4)c3)cc2)cc1
Response: 2.5

Prompt: What about CCCCCCCCCCCCCCCCC(CCCCCCCCCCCCCCCC)c1cc[n+](Cc2ccc(-c3cc(-c4ccccn4)nc(-c4ccccn4)c3)cc2)cc1.[Br-] ?
Response: 13

Prompt: Let us now turn to O=[N+]([O-])c1cccc(-c2cc(-c3ccccn3)nc(-c3ccccn3)c2)c1
Response: 2.8

Prompt: Entry CCCCCCCCCCCCCCCCCc1cc[n+](Cc2ccc(-c3cc(-c4ccccn4)nc(-c4ccccn4)c3)cc2)cc1 please
Response: 1.2

Prompt: Lookup C[N+](C)(C)Cc1ccc(-c2cc(-c3ccccn3)nc(-c3ccccn3)c2)cc1
Response: 1.3

Prompt: How about this molecule: Nc1cccc(-c2cc(-c3ccccn3)nc(-c3ccccn3)c2)c1
Response: 4.6

Prompt: Follow-up item: Cc1ccc(-c2cc(-c3ccccn3)nc(-c3ccccn3)c2)cc1
Response: 9.8

Prompt: # iterate: c1ccc(-c2cc(-c3ccccn3)nc(-c3ccccn3)c2)cc1
Response: 2.2

Prompt: Now the same for BrCc1ccc(-c2cc(-c3ccccn3)nc(-c3ccccn3)c2)cc1
Response: 5.2

Prompt: // next record COc1ccc(-c2cc(-c3ccccn3)nc(-c3ccccn3)c2)cc1
Response: 1.8

###

system: Astroglial cells derived from the mouse forebrain; assay: Synthesis-stimulating activity on NGF (NGF level in culture medium by enzyme immunoassay); type: cell-based; conditions: Mus musculus, 24 h, 10 µg/ml; ratio to DMSO control = 1.0
Parameter measured: fold induction at 10 µg/mL
Respond using a number only.

Prompt: Given the entry Cc1ccc(-c2cc(-c3ccccn3)nc(-c3ccccn3)c2)cc1.Cl.Cl.Cl [Compound 6, trihydrochloride] , what fold induction at 10 µg/mL was observed with Astroglial cells derived from the mouse forebrain?
Response: 2

Prompt: What do you have for CCOc1ccc(-c2cc(-c3ccccn3)nc(-c3ccccn3)c2)cc1 ?
Response: 4.8

Prompt: What about this compound? O=C(O)c1ccc(-c2cc(-c3ccccn3)nc(-c3ccccn3)c2)cc1
Response: 2.4

Prompt: Next compound up: c1cc[n+](Cc2ccc(-c3cc(-c4ccccn4)nc(-c4ccccn4)c3)cc2)cc1
Response: 1.1

Prompt: Request: Nc1cccc(-c2cc(-c3ccccn3)nc(-c3ccccn3)c2)c1
Response: 5.7

Prompt: And the next one, CCCCCCCCCCCCCCCCC(CCCCCCCCCCCCCCCC)c1cc[n+](Cc2ccc(-c3cc(-c4ccccn4)nc(-c4ccccn4)c3)cc2)cc1.[Br-] ?
Response: 2

Prompt: And the next one, c1ccc(-c2cc(-c3ccc(Cn4cccc4)cc3)cc(-c3ccccn3)n2)nc1 ?
Response: 1.1

Prompt: Input c1ccc(-c2cc(-c3ccncc3)cc(-c3ccccn3)n2)nc1
Response: 1.2

Prompt: Consider next the compound Cc1cccc(-c2cc(-c3ccccn3)nc(-c3ccccn3)c2)c1 in the same way.
Response: 1.3

Prompt: Queued: C[N+](C)(C)Cc1ccc(-c2cc(-c3ccccn3)nc(-c3ccccn3)c2)cc1
Response: 3.2

Prompt: Could you do the same for CC(C)c1ccc(-c2cc(-c3ccccn3)nc(-c3ccccn3)c2)cc1 , please?
Response: 3.2

Prompt: Same question for Cc1ccccc1-c1cc(-c2ccccn2)nc(-c2ccccn2)c1 please.
Response: 2.9

Prompt: Then what about the compound CCc1ccc(-c2cc(-c3ccccn3)nc(-c3ccccn3)c2)cc1 ?
Response: 1

###

system: Astroglial cells derived from the mouse forebrain; assay: Synthesis-stimulating activity on NGF (NGF level in culture medium by enzyme immunoassay); assay type: cell-based; details: Mus musculus, 24 h, 2 µg/ml; ratio to DMSO control = 1.0; 24 hours; read-out: Synthesis-Stimulating Activity on NGF
Parameter measured: fold induction at 2 µg/mL
Output: the number by itself.

Prompt: Look up fold induction at 2 µg/mL: Cc1cccc(-c2cc(-c3ccccn3)nc(-c3ccccn3)c2)c1 [Compound 4]
Response: 1.8

Prompt: And the next one, c1cc[n+](Cc2ccc(-c3cc(-c4ccccn4)nc(-c4ccccn4)c3)cc2)cc1 [Compound 25] ?
Response: 1.2

Prompt: Now give it for c1ccc(-c2cc(-c3ccc(Cn4cccc4)cc3)cc(-c3ccccn3)n2)nc1 [Compound 22] too.
Response: 1.7

Prompt: Entry CCc1ccc(-c2cc(-c3ccccn3)nc(-c3ccccn3)c2)cc1 [Compound 7] please
Response: 2.9

Prompt: Likewise for CCOc1ccc(-c2cc(-c3ccccn3)nc(-c3ccccn3)c2)cc1 [Compound 14] ?
Response: 2.1

Prompt: Record: O=C(O)c1ccc(-c2cc(-c3ccccn3)nc(-c3ccccn3)c2)cc1 [Compound 19]
Response: 2.4

Prompt: Another compound to look at: CC(C)c1ccc(-c2cc(-c3ccccn3)nc(-c3ccccn3)c2)cc1 [Compound 8]
Response: 1.7

Prompt: Now the compound Cc1ccccc1-c1cc(-c2ccccn2)nc(-c2ccccn2)c1 [Compound 3]
Response: 1.5

Prompt: And c1ccc(-c2cc(-c3ccncc3)cc(-c3ccccn3)n2)nc1 [Compound 30, 4'-(4-Pyridyl)-2,2':6',2''-terpyridine] ?
Response: 1
